- Tested on: HEK-293T
- protocol: Multiplex assay against HEK293T
- Type: toxicity, cell-based
- conditionInfo: human, 48 h, 10 µM, compound concentration 10 uM

{"molecule": "CN1CC[C@@]23CCCC[C@@H]2[C@@H]1Cc1ccc(O)cc13.O=C(O)C(O)C(O)C(=O)O", "Population Normal (%)": 100}
{"molecule": "COc1cc2nc(N3CCN(C(=O)c4ccco4)CC3)nc(N)c2cc1OC.Cl [PRAZOSIN HYDROCHLORIDE]", "Population Normal (%)": 95}
{"molecule": "COc1cc(N2CCN(C)CC2)ccc1Nc1nccc(-c2cn(C)c3cnccc23)n1", "Population Normal (%)": 100}
{"molecule": "Nc1nc(-c2ccco2)c2cnn(Cc3ccccc3F)c2n1", "Population Normal (%)": 92}
{"molecule": "CCCCC[C@H](O)/C=C/[C@H]1[C@H](O)CC(=O)[C@@H]1CCCCCCC(=O)O", "Population Normal (%)": 97}
{"molecule": "CCn1c(-c2ccncc2)cc2c1CCNC2=O", "Population Normal (%)": 100}
{"molecule": "Cc1ccccc1C(=O)Nc1ccc(C(=O)N2CCCC(N(C)C)c3ccccc32)cc1.Cl (stereo unspecified)", "Population Normal (%)": 93}
{"molecule": "COc1cc(NC(=O)CCN2CCC(OC(=O)Nc3ccccc3-c3ccccc3)CC2)c(Cl)cc1CNC[C@H](O)c1ccc(O)c2[nH]c(=O)ccc12", "Population Normal (%)": 92}
{"molecule": "CCCCCN1C(=O)C2(COc3cc4c(cc32)OCO4)c2ccccc21 (stereo unspecified)", "Population Normal (%)": 100}
{"molecule": "Cc1ccc(-c2c(C(=O)CF)n(CCCO)c3ncnc(N)c23)cc1", "Population Normal (%)": 100}
{"molecule": "Cc1ccc(OCC(O)C(C)NC(C)C)c2c1CCC2.Cl (stereo unspecified)", "Population Normal (%)": 94}
